Tested on: TTR
Protocol notes: TTR editing in primary human hepatocytes transfected with Spy Cas9 protein and sgRNAs (Table 12)
Assay type: cell-based
Assay context: primary human hepatocytes transfected with Spy Cas9 protein (RNP) and sgRNAs
Strand notation (5' to 3'): a small letter for the sugar, then the base; units joined by * are phosphorothioate-linked, units joined directly phosphodiester-linked; [ ] holds rarer units or linkages, { } end groups; capitals alone tell only the bases. m = 2'-O-methyl; r = 2'-OH (RNA)
Provide the recorded Avg % Edit for the entries that follow.
Expressed in %, but write only the number.

Need Avg % Edit, item G000481: TTR sgRNA modified sequence, Human, SEQ ID No. 88; guide sequence of CR003345 (nucleic acid) guide: mU*mC*mU*rArGrArArCrUrUrUrGrArCrCrArUrCrArGrGrUrUrUrUrArGrAmGmCmUmAmGmAmAmAmUmAmGmCrArArGrUrUrArArArArUrArArGrGrCrUrArGrUrCrCrGrUrUrArUrCrAmAmCmUmUmGmAmAmAmAmAmGmUmGmGmCmAmCmCmGmAmGmUmCmGmGmUmGmCmU*mU*mU*mU
46.90

Need Avg % Edit, item G000482: TTR sgRNA modified sequence, Human, SEQ ID No. 89; guide sequence of CR003365 (nucleic acid) guide: mU*mG*mU*rArGrArArGrGrGrArUrArUrArCrArArArGrGrUrUrUrUrArGrAmGmCmUmAmGmAmAmAmUmAmGmCrArArGrUrUrArArArArUrArArGrGrCrUrArGrUrCrCrGrUrUrArUrCrAmAmCmUmUmGmAmAmAmAmAmGmUmGmGmCmAmCmCmGmAmGmUmCmGmGmUmGmCmU*mU*mU*mU
66.67

Need Avg % Edit, item G000489: TTR sgRNA modified sequence, Human, SEQ ID No. 96; guide sequence of CR003344 (nucleic acid) guide: mU*mU*mU*rGrArCrCrArUrCrArGrArGrGrArCrArCrUrGrUrUrUrUrArGrAmGmCmUmAmGmAmAmAmUmAmGmCrArArGrUrUrArArArArUrArArGrGrCrUrArGrUrCrCrGrUrUrArUrCrAmAmCmUmUmGmAmAmAmAmAmGmUmGmGmCmAmCmCmGmAmGmUmCmGmGmUmGmCmU*mU*mU*mU
60.17

Need Avg % Edit, item G000491: TTR sgRNA modified sequence, Human, SEQ ID No. 98; guide sequence of CR003338 (nucleic acid) guide: mA*mU*mA*rCrCrArGrUrCrCrArGrCrArArGrGrCrArGrGrUrUrUrUrArGrAmGmCmUmAmGmAmAmAmUmAmGmCrArArGrUrUrArArArArUrArArGrGrCrUrArGrUrCrCrGrUrUrArUrCrAmAmCmUmUmGmAmAmAmAmAmGmUmGmGmCmAmCmCmGmAmGmUmCmGmGmUmGmCmU*mU*mU*mU
74.30

Need Avg % Edit, item G000497: TTR sgRNA modified sequence, Human, SEQ ID No. 104; guide sequence of CR003335 (nucleic acid) guide: mC*mU*mG*rCrUrCrCrUrCrCrUrCrUrGrCrCrUrUrGrCrGrUrUrUrUrArGrAmGmCmUmAmGmAmAmAmUmAmGmCrArArGrUrUrArArArArUrArArGrGrCrUrArGrUrCrCrGrUrUrArUrCrAmAmCmUmUmGmAmAmAmAmAmGmUmGmGmCmAmCmCmGmAmGmUmCmGmGmUmGmCmU*mU*mU*mU
59.67

Need Avg % Edit, item G000498: TTR sgRNA modified sequence, Human, SEQ ID No. 105; guide sequence of CR003359 (nucleic acid) guide: mA*mG*mU*rGrArGrUrCrUrGrGrArGrArGrCrUrGrCrArGrUrUrUrUrArGrAmGmCmUmAmGmAmAmAmUmAmGmCrArArGrUrUrArArArArUrArArGrGrCrUrArGrUrCrCrGrUrUrArUrCrAmAmCmUmUmGmAmAmAmAmAmGmUmGmGmCmAmCmCmGmAmGmUmCmGmGmUmGmCmU*mU*mU*mU
72.80

Need Avg % Edit, item G000485: TTR sgRNA modified sequence, Human, SEQ ID No. 92; guide sequence of CR003336 (nucleic acid) guide: mC*mC*mU*rCrCrUrCrUrGrCrCrUrUrGrCrUrGrGrArCrGrUrUrUrUrArGrAmGmCmUmAmGmAmAmAmUmAmGmCrArArGrUrUrArArArArUrArArGrGrCrUrArGrUrCrCrGrUrUrArUrCrAmAmCmUmUmGmAmAmAmAmAmGmUmGmGmCmAmCmCmGmAmGmUmCmGmGmUmGmCmU*mU*mU*mU
56.07
